Target: T1, IFIT5 Q41E/K150M/R253M (UniProt Q13325 1-482, Q41E;K150M;R253M)
T1 sequence: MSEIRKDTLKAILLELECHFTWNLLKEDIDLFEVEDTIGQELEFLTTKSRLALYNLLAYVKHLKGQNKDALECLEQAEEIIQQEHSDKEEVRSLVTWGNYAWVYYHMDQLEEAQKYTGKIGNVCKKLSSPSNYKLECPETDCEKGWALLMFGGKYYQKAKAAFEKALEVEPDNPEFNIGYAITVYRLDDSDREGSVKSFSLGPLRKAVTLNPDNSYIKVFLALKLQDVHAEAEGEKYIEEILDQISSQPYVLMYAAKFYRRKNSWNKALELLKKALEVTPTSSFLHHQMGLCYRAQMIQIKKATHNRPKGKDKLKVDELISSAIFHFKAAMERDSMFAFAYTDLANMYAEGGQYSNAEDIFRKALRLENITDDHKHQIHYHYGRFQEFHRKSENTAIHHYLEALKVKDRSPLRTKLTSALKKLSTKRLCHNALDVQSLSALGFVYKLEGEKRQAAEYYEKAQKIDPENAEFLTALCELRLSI
Test: MST; apparent, single replicate; no Mg2+ (assignment by word order); MST: PBS, 5% glycerol, 0.5 mM TCEP, 0.05% Tween20, +/-1 mM MgCl2 (K150M always with 1 mM MgCl2), 10 nM Cy5-RNA, 22 C, 10 min incubation; pH not stated
Conditions: protein: recombinant; tags: N-terminal His tag (pETG10a); label: 3'-Cy5; single strand, 12 nt
pKd: −log10 of the molar value.

{"BINDER": "AAAAAGGAAGGU (ssRNA, 5'-triphosphate) [5'-ppp-AAAAAGGAAGGU-Cy5]", "pKd": 5.77}
